From: ChEMBL document CHEMBL3046389

tested on: MCF7; experiment: Anticancer activity against Homo sapiens (human) MCF7 cells after 48 hr by SRB assay; assay type: functional; settings: MCF7, 48 h
quantity: TGI

Query: Return reported TGI. Input molecule: COc1ccc(OC)c(/C=C/C(=O)N/N=C/c2ccc(Cl)cc2)c1
Response: 32.5 µM

Query: For the molecule COc1ccc(OC)c(/C=C/C(=O)N/N=C/c2ccccc2)c1 , give its measured TGI value.
Response: > 100 µM

Query: Entry COc1ccc(OC)c(/C=C/c2nnc(Nc3ccc(Cl)cc3)o2)c1 needs its TGI filled in; supply it.
Response: > 100 µM

Query: Note down TGI recorded for COc1ccc(OC)c(/C=C/c2nnc(S)n2-c2ccc(Cl)cc2)c1
Response: > 100 µM
